Tested on: OVCAR-5 complex spheroids with HUVEC/MSC, viability, % test/control
Assay: Anticancer human tumor OVCAR-5 cell line growth inhibition [AhR];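 further: spheroids exposed to compounds for 7 days; 100% = DMSO vehicle control wells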
Conditions: second compound 0.316 µM; first compound 1 µM; hits give low values
readout.type: viability, T/C (%)

- Nc1ncn(C2CC(O)C(CO)O2)c(=O)n1 (configuration not stated) + Cc1cncc(-c2nc(NCCc3c[nH]c4ccccc34)c3ncn(C(C)C)c3n2)c1: 59
- CC1COCCN1c1cc(C2(S(C)(=N)=O)CC2)nc(-c2ccnc3[nH]ccc23)n1 (configuration not stated) + CC(CO)NC(=O)c1cc(-c2ccc(Cl)cc2)nn(-c2cnn(C)c2)c1=O: 108
- Nc1ncn(C2CC(O)C(CO)O2)c(=O)n1 (configuration not stated) + CC(CO)NC(=O)c1cc(-c2ccc(Cl)cc2)nn(-c2cnn(C)c2)c1=O: 62
- CC(C)c1c(-c2ccccc2)nc2c(C#N)c[nH]n2c1=O + Cc1cncc(-c2nc(NCCc3c[nH]c4ccccc34)c3ncn(C(C)C)c3n2)c1: 102
- COc1ccc([C@@H](O)c2cc(-c3ncnc4cc(N5CCOCC5)ccc34)c(F)cc2Cl)nn1 + CC(CO)NC(=O)c1cc(-c2ccc(Cl)cc2)nn(-c2cnn(C)c2)c1=O: 80.4
- CC(C)c1c(-c2ccccc2)nc2c(C#N)c[nH]n2c1=O + CC(CO)NC(=O)c1cc(-c2ccc(Cl)cc2)nn(-c2cnn(C)c2)c1=O: 115
- CC1(C)CCC(CN2CCN(c3ccc(C(=O)NS(=O)(=O)c4ccc(NCC5CCOCC5)c([N+](=O)[O-])c4)c(Oc4cnc5[nH]ccc5c4)c3)CC2)=C(c2ccc(Cl)cc2)C1 + CC(CO)NC(=O)c1cc(-c2ccc(Cl)cc2)nn(-c2cnn(C)c2)c1=O: 114
- O=C(C=Cc1cccc(S(=O)(=O)Nc2ccccc2)c1)NO + CC(CO)NC(=O)c1cc(-c2ccc(Cl)cc2)nn(-c2cnn(C)c2)c1=O: 45.9
- COc1cc(C2c3cc4c(cc3C(OC3OC5COC(C)OC5C(O)C3O)C3COC(=O)C23)OCO4)cc(OC)c1O (configuration not stated) + Cc1cncc(-c2nc(NCCc3c[nH]c4ccccc34)c3ncn(C(C)C)c3n2)c1: 67.7
- COc1cccc2c1C(=O)c1c(O)c3c(c(O)c1C2=O)CC(O)(C(=O)CO)CC3OC1CC(N)C(O)C(C)O1 (configuration not stated) + CC(CO)NC(=O)c1cc(-c2ccc(Cl)cc2)nn(-c2cnn(C)c2)c1=O: 23.3
- COc1ccc([C@@H](O)c2cc(-c3ncnc4cc(N5CCOCC5)ccc34)c(F)cc2Cl)nn1 + Cc1ccccc1N=Nc1ccc(NC(=O)c2ccnn2C)c(C)c1: 76.8
- CC1COCCN1c1cc(-c2ccnn2C)c2ccnc(-c3ccn[nH]3)c2n1 (configuration not stated) + CC(CO)NC(=O)c1cc(-c2ccc(Cl)cc2)nn(-c2cnn(C)c2)c1=O: 32.1

###

Test system: OVCAR-5 complex spheroids with HUVEC/MSC, viability, % test/control
Assay: Anticancer human tumor OVCAR-5 cell line growth inhibition [AhR];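 further: spheroids exposed to compounds for 7 days; 100% = DMSO vehicle control wells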
Conditions: second compound 1 µM; first compound 10 µM; hits give low values
Quick reference for viability, T/C among some compounds
readout.type: viability, T/C (%)

* CC1(C)CCC(CN2CCN(c3ccc(C(=O)NS(=O)(=O)c4ccc(NCC5CCOCC5)c([N+](=O)[O-])c4)c(Oc4cnc5[nH]ccc5c4)c3)CC2)=C(c2ccc(Cl)cc2)C1 + Cc1ccccc1N=Nc1ccc(NC(=O)c2ccnn2C)c(C)c1 | 56.9
* O=C(c1cc(Cc2n[nH]c(=O)c3ccccc23)ccc1F)N1CCN(C(=O)C2CC2)CC1 + CC(CO)NC(=O)c1cc(-c2ccc(Cl)cc2)nn(-c2cnn(C)c2)c1=O | 107
* COc1cc(Nc2ncc3c(n2)-c2ccc(Cl)cc2C(c2c(F)cccc2OC)=NC3)ccc1C(=O)O + Cc1ccccc1N=Nc1ccc(NC(=O)c2ccnn2C)c(C)c1 | 43.7
